Experiment: HepG2 cytotoxicity, primary screen, cytotoxicity control for P. falciparum antimalarial project, cell-based, ATP luminescence (AID 2303)
Conditions: HepG2 viability, 24-48 h, at 10 µM, stronger effect = higher value
Classify by inhibition. Ranges: low end = under 10%, middle = from 10% up to 30%, high end = 30% and over

compound | discrete-label
CCCC(=O)c1c(O)c2ccccc2oc1=O | middle
COc1ccc(C[C@H](C)NC[C@H](O)c2cccc(Cl)c2)cc1F | low end
O=[N+]([O-])c1ccc(Oc2c(Cl)cc(S(=O)(=O)N3CCC(CN4CCC(c5c[nH]c6ccccc56)CC4)CC3)cc2Cl)c(Cl)c1 | high end
Oc1cccc(C2CCCN(Cc3cccc4cc[nH]c34)C2)c1 (stereo not given) | middle
COc1coc(C(=O)NC2CCN(CC3(c4ccc(Cl)cc4)CCC3)CC2)c1OC | low end
CCCCCCCn1c(=O)c(C(=O)Nc2c(C)cccc2C)c(O)c2ccccc21 | low end
Oc1ccc(CN2CCN(CCOC(c3ccccc3)c3ccccc3)CC2)cc1Cl | low end
Cc1nc(-c2ccc(-c3ccc(C(=O)Nc4ccc5c(c4)C4(CCNCC4)CO5)cc3)c(C)c2)no1 | high end
O=C(/C=C/c1ccc(Cl)c(Cl)c1)NCCCCCN1C2CCC1CC(c1c[nH]c3ccccc13)C2 (stereo not given) | high end
Cc1cc(C2CCCCN2C)ccc1-c1ccc(C(=O)N2CCc3cc4c(cc32)C2(CCN(C)CC2)CO4)cc1 (stereo not given) | high end
O=C(C=Cc1ccc(F)c(Br)c1)N1CCC(CN2CCC(c3c[nH]c4ccccc34)CC2)CC1 | high end
Oc1ccc(Cl)cc1CN1CCC(CCOC(c2ccccc2)c2ccc(Cl)cc2)CC1 (stereo not given) | high end
CN(c1cc(NC(=O)c2ccc(F)cc2)ccn1)C1CCN(Cc2ccc(C#N)cc2)CC1 | middle
CC(=O)Nc1ccc(OCCN(CC(C)(C)C)c2ccc(C#N)c(C(F)(F)F)c2)c(Cl)c1 | low end
O=C(Nc1ccc(CN2CCC(c3c[nH]c4ccc(O)cc34)CC2)cc1)c1ccc(-c2ccccc2)cc1 | high end
CS(=O)(=O)Nc1ccc2[nH]cc(C3CCN(CC4CCC(NC(=O)/C=C/c5ccccc5Cl)CC4)CC3)c2c1 (stereo not given) | middle
CN(CC(=O)N1CCN(S(=O)(=O)c2cccc(Cl)c2)CC1CN1CCCC1)c1ccc(Cl)c(Cl)c1 (stereo not given) | high end
COc1ccc(C[C@H]2NC[C@H](O)[C@H]2OC(C)=O)cc1 | high end
COc1cccc(O)c1CNCC(O)c1cccc(C(F)(F)F)c1 (stereo not given) | high end
CCCCCCCCNCC(O)c1ccc(Cl)c(Cl)c1 (stereo not given) | low end
